# Test system: Mycosphaerella graminicola; Anamorph: Zymoseptoria tritici
# Assay Details: Fungicidal activity: Leaf Blotch of Wheat (SEPTTR), wheat seedlings
# Assay type: in vivo
# Protocol Conditions: 72 h, Low Volume (121.5 g/H), 3 Day Curative, wheat, read-out: SEPTTR disease control rating, 3DC

Molecule	System Name	pest or weed control at 121.5 g/ha
C=CCO[C@H]1[C@H](C)OC(=O)[C@@H](NC(=O)c2nccc(OC)c2OCOC(C)=O)CCO[C@@H]1Cc1ccc(F)cc1 [Compound 78]	Mycosphaerella graminicola; Anamorph: Zymoseptoria tritici	< 70%
CC[C@H]1OCC[C@H](NC(=O)c2nccc(OC)c2OC(C)=O)C(=O)O[C@@H](C)[C@@H]1OC(=O)C(C)C [Compound 95]	Mycosphaerella graminicola; Anamorph: Zymoseptoria tritici	> 70%
COc1ccnc(C(=O)N[C@H]2CCO[C@H](Cc3ccc(F)cc3)[C@@H](OC(=O)C(C)C)[C@H](C)OC2=O)c1OCOC(C)=O [Compound 74]	Mycosphaerella graminicola; Anamorph: Zymoseptoria tritici	> 70%
CC[C@H]1OCC[C@H](NC(=O)c2nccc(OC)c2OCOC(C)=O)C(=O)O[C@@H](C)[C@@H]1OCC(C)C [Compound 89]	Mycosphaerella graminicola; Anamorph: Zymoseptoria tritici	> 70%
